system: PC-3 prostate; test: NCI-60 one-dose screen, 48 h (100 = growth as untreated, 0 = no growth, -100 = all killed); details: 10 µM unless noted
This is part of a sample that, as a whole, favours compounds with a hit. Of some 83,000 tested, about 20% had one in any assay.
Value Type: growth (%)
Give bare numbers, in %.

Cc1[nH]cnc1/C=C1\SC(N2CCCCC2)=NC1=O: 106
O=C(/C=C(\Nc1ccccc1)c1ccccc1)c1cn(-c2ccc([N+](=O)[O-])cc2)nn1: 80.1
COc1ccc(/C=C2\CCc3ccccc3C2=O)cc1: 82.1

Give growth for each of the items listed below.
1. COc1cccc(/C=C2\Cc3ccccc3C2=O)c1
2. C=CCN(/C=C/CN(CC=C)CC=C)CC=C
3. O=C1/C=C/[C@@H](O)[C@@H]2C[C@@H](O)C[C@H]2/C=C/CCC[C@H](CO)O1
4. COc1cc(NC(=O)NCc2ccco2)ccc1-c1ccc(NC(=O)NCc2ccco2)cc1OC
5. COc1ccc(C2CC(c3ccc(Nc4ccnc5cc(Cl)ccc45)cc3)=NN2C(C)=O)cc1 (stereo not drawn)
6. O=C(COc1ccc(/C=C2\Oc3ccc4ccccc4c3C2=O)cc1)c1ccc(Cl)cc1
7. CC1C(C)N(C(=O)CCl)c2ccccc2N1C(=O)CCl (stereo not drawn)
8. O=C1NC(=O)/C(=C/c2ccc(Cl)cc2Cl)N1

Out:
1: 87.5; 2: 89.4; 3: 39.5; 4: 33.6; 5: 53.3; 6: 93.8; 7: -36.6; 8: 96.5

Give growth for each of the items listed below.
1. CCc1ccc(-c2nc(SCC(=O)NC3CCCCC3)n[nH]2)cc1
2. O=C(Nc1cccc(Cl)c1)Nc1cccc(Cl)c1

Out:
1: 77.1; 2: 26.8

* * *

For each record, write down the corresponding growth.
test system: SK-OV-3 ovarian; experiment: NCI-60 one-dose screen, 48 h (100 = growth as untreated, 0 = no growth, -100 = all killed); settings: 10 µM unless noted
The panel holds about 83,000 compounds, 20% with a hit somewhere; the sample as a whole holds those more often. Activity calls are given as the source filed them. How the source made its calls: active means growth percent below 10; inactive means the rest.

Cn1c(=O)c2[nH]c(=S)n(Cc3ccccc3)c2n(C)c1=O: 107% (inactive)
CC1CN(/N=C/c2ccc([N+](=O)[O-])o2)C(=N)O1 (stereo not given): 118% (inactive)
CSc1nc2nc3c(nc2c(=O)n1C)C(=O)c1ccccc1C3=O: -22.2% (active)

Give growth for each of the items listed below.
1. O=C(Nc1nc(-c2ccc(Cl)cc2)cs1)c1cc(-c2ccc(Br)cc2)nc2ccc(Cl)cc12
2. CC(C)N(Cc1ccccc1)c1c(S)ssc1=S
3. O=[N+]([O-])c1ccc(N=Nc2c(Cl)cc(O)cc2Cl)cc1

Out:
1: 86.6% (inactive); 2: 11.7% (inactive); 3: 13.3% (inactive)

Give growth for each of the items listed below.
1. O=C(N/N=C/c1cccc([N+](=O)[O-])c1)c1ccc(Br)o1
2. Nc1nc(Nc2ccccc2SSc2ccccc2Nc2nc(N)nc(C(Cl)(Cl)Cl)n2)nc(C(Cl)(Cl)Cl)n1
3. N#Cc1c(-c2ccccc2)cc(-c2ccccc2)n(CCC(=O)O)c1=O
4. Nc1ncnc2c1CN(Cc1ccccc1)CC2
5. COc1cc(/C(Cl)=C/C=C/C(=O)c2c(C)[n+]([O-])c3ccc(Cl)cc3[n+]2[O-])cc(OC)c1OC
6. COc1ccc(-c2cc(-c3nnc(SCC(=O)Nc4ccc(C(C)=O)cc4)n3-c3ccccc3)c3ccccc3n2)cc1OC

Out:
["97.7% (inactive)", "121% (inactive)", "92% (inactive)", "103% (inactive)", "69.5% (inactive)", "81.6% (inactive)"]

Give growth for each of the items listed below.
1. Cc1onc(-c2ccccc2Cl)c1C(=O)N[C@@H]1C(=O)N2[C@@H]1SC(C)(C)[C@@H]2C(=O)O
2. O=C(COc1ccc(/C=C2\Oc3ccc4ccccc4c3C2=O)cc1)c1ccc([N+](=O)[O-])cc1
3. O=C(c1ccc(N2CCOCC2)cc1[N+](=O)[O-])N1CCOCC1
4. CCCCN1c2nc3ccccc3cc2Sc2cc3ccccc3nc21
5. O=C(COc1cccc(/C=C2\Oc3ccc4ccccc4c3C2=O)c1)c1ccc(Cl)cc1
6. N#CC(C#N)C(C#N)C#N
7. BrC1CC(Br)c2c1c1c(c3c2C(Br)CC3Br)C(Br)CC1Br (stereo not given)

Out:
1. 104% (inactive)
2. 103% (inactive)
3. 110% (inactive)
4. 112% (inactive)
5. 95.6% (inactive)
6. 84% (inactive)
7. 102% (inactive)

Give growth for each of the items listed below.
1. COC(=O)[C@H](Cc1cnc[nH]1)NC(=O)[C@@H](NC(=O)Nc1cc(C(F)(F)F)cc(C(F)(F)F)c1)C(C)C
2. COc1ccc(C(=O)COc2cccc(/C=C3\COc4ccc5ccccc5c4C3=O)c2)cc1
3. COc1ccc(C2=NN(C(N)=S)C(c3ccc4c(c3)OCO4)C2)cc1 (stereo not given)
4. O=C(COc1cccc(/C=C2\Cc3ccccc3C2=O)c1)c1ccc(Cl)cc1

Out:
-100% [100 µM] (active)
95.7% (inactive)
33.8% (inactive)
130% (inactive)

* * *

test system: SK-MEL-2 melanoma; assay: NCI-60 one-dose screen, 48 h; details: 10 µM unless noted
The panel holds about 83,000 compounds, 20% with a hit somewhere; the sample as a whole holds those more often. Activity calls are given as the source filed them. Rule for the calls: active = growth percent below 10; inactive = the rest.
Please answer using one outcome listed in active, inactive

Solved entries:
Cc1cccc2nnc(-c3ccccc3)n12: inactive
C1CCC(C(CC2CCCCN2)C2CCCCC2)CC1 (configuration not stated): inactive

In: What is the recorded call for this compound in the test? "COc1ccc2c(c1)sc1nc(-c3ccc(Br)cc3)cn12"
Out: inactive

In: Also, "CSc1nc2nc3c(nc2c(=O)n1C)C(=O)c1ccccc1C3=O" please.
Out: active

In: Also, Clc1ccc2c(c1)C(Br)c1cc(Cl)cc(Cl)c1-2 (configuration not stated) please.
Out: inactive

In: Also, "c1ccc(Nc2ccc(Nc3nc(-c4ccccc4)nc4ccccc34)cc2)cc1" please.
Out: inactive

In: Also, "COc1ccc2ncccc2c1Cc1c(OC)ccc2ncccc12" please.
Out: inactive

In: Also, "O=C(NN1C(=O)c2cc(C(=O)O)c(C(=O)O)cc2C1=O)c1ccncc1" please.
Out: inactive

In: Also, "O=C(O)c1ccc(CNS(=O)(=O)c2ccc3ccccc3c2)cc1" please.
Out: active

In: Also, CN(C)c1ncnc2c1ncn2C1CCCCO1 (configuration not stated) please.
Out: inactive

* * *

system: M14 melanoma; test: NCI-60 one-dose screen, 48 h; settings: 10 µM unless noted
The panel holds about 83,000 compounds, 20% with a hit somewhere; the sample as a whole holds those more often. The source made the active and inactive calls. How the source made its calls: active means growth percent below 10; inactive means the rest.
Please answer using one outcome listed in true (active), false (inactive)

O=C1/C(=C/c2cccc(Cl)c2)CCc2ccccc21: false
COc1ccc(Oc2ccccc2NC(=O)CNC(=O)c2cccc3ccccc23)cc1: false
O=C(Nc1cccc(-n2cc(-c3ccncc3)c(-c3cc(O)cc(Cl)c3)n2)c1)Nc1ccc(Cl)c(Cl)c1: true
O=C(CC1Sc2ccccc2NC1=O)NNc1cccc(Cl)c1Cl (stereo not given): false

In: What is the recorded call for this molecule in the test? "Cc1sc2nc(NCCc3cccs3)[nH]c(=O)c2c1C"
Out: false

* * *

test system: SNB-19 CNS; experiment: NCI-60 one-dose screen, 48 h (100 = growth as untreated, 0 = no growth, -100 = all killed); conditions: 10 µM unless noted
The panel holds about 83,000 compounds, 20% with a hit somewhere; the sample as a whole holds those more often. Calls of active or inactive are those of the source. Rule for the calls: active = growth percent below 10; inactive = the rest.
Value Type: growth

Give growth for each of the items listed below.
1. CC(=O)O[C@H]1CC[C@@]2(C)C(=CC[C@@H]3[C@@H]2CC[C@]2(C)C(c4cccnc4)=CC[C@@H]32)C1
2. O=C(NC1CCCCC1)c1ccc(Nc2ncnc3c2cnn3-c2ccccc2)cc1
3. CCCCCCCCN(CCO)CCCCCCCC
4. Cc1cc2ccccn2c1C(=O)c1ccc(C(=O)c2ccccc2)cc1
5. COc1cccc(N2CCN(c3cccc(C)n3)CC2)c1
6. Cc1nn2c(/C=C3/C(=O)Nc4cc(Cl)ccc43)c(-c3ccccc3)nc2s1

Out:
72.3% (inactive)
48.7% (inactive)
113% (inactive)
86.1% (inactive)
113% (inactive)
54% (inactive)

Give growth for each of the items listed below.
1. O=C(O)C1C(c2ccccc2)c2ccccc2C(O)C1CO (stereo not given)
2. O=C(/C=C/c1c(-c2ccccc2)[nH]c2ccccc12)S(=O)(=O)c1ccccc1
3. NC(=O)c1cc(Cl)ccc1NC(=O)c1ccccc1-c1ccccc1
4. O=[N+]([O-])c1cc([N+](=O)[O-])c(N2CCCC2)cc1NN=C(c1ccc(O)cc1)c1ccc(O)cc1

Out:
99.8% (inactive)
82.4% (inactive)
31.9% (inactive)
37.3% (inactive)

Give growth for each of the items listed below.
1. O=C(O)CCC(=O)OC[C@@H](NC(=O)C(Cl)Cl)[C@H](O)c1ccc([N+](=O)[O-])cc1
2. Cc1[nH]ccc2cc3nc4ccccc4c3cc12
3. C1CCC(C(CC2CCCCN2)C2CCCCC2)CC1 (stereo not given)
4. [N-]=[N+]=NCc1cccc(/C(O)=C/C(=O)C(=O)O)c1
5. CC(=O)Nc1c(Cl)cc2c(c1Cl)Cc1ccccc1-2
6. CC(=O)Nc1cc(C(c2ccccc2)c2ccccc2)cc(C(c2ccccc2)c2ccccc2)c1C

Out:
1. 99.4% (inactive)
2. 44.9% (inactive)
3. 13.2% (inactive)
4. 101% (inactive)
5. 101% (inactive)
6. 71.4% (inactive)

Give growth for each of the items listed below.
1. N#Cc1c(-c2ccccc2)cc(-c2ccccc2)n(CCCCCCC(=O)O)c1=O
2. COc1ccc(Oc2ccccc2NC(=O)CNC(=O)c2cccc3ccccc23)cc1
3. CN(C)c1ncnc2c1ncn2C1CCCCO1 (stereo not given)
4. Cc1sc2nc(N3CCCCC3)[nH]c(=O)c2c1C

Out:
1: 96.3% (inactive); 2: 51.4% [5 µM] (inactive); 3: 97.1% (inactive); 4: 92.4% (inactive)
